Field: Activity. Provide a value for each of the molecules that follow.
tested on: Sodium- and chloride-dependent GABA transporter 1 (Mus musculus) (UniProt P31648)
assay method text: Inhibition of mouse GAT-1 assessed as percentage of remaining specific binding of NO711 at 1 uM after 4 hrs by LC-ESI-MS/ms analysis relative to control
One number for each entry, in %.

In [3]: df
Out[3]:
                                   molecule                                 tested_on  assay_metric  numeric_readout
0  O=C(O)C1CCCN(CCO/N=C/c2cc3c(cc2-c2ccccc2F)OCO3)C1 (racemic)  Sodium- and chloride-dependent GABA transporter 1 (Mus musculus) (UniProt P31648)      Activity               19
1              O=Cc1cc2c(cc1-c1ccccc1F)OCO2  Sodium- and chloride-dependent GABA transporter 1 (Mus musculus) (UniProt P31648)      Activity               92
2  O=C(O)C1CCCN(CCO/N=C/c2ccccc2-c2ccc3ccccc3c2)C1 (racemic)  Sodium- and chloride-dependent GABA transporter 1 (Mus musculus) (UniProt P31648)      Activity               89
3                  O=Cc1ccccc1-c1ccc(Cl)cc1  Sodium- and chloride-dependent GABA transporter 1 (Mus musculus) (UniProt P31648)      Activity               92
4                O=Cc1ccccc1-c1ccc2ccccc2c1  Sodium- and chloride-dependent GABA transporter 1 (Mus musculus) (UniProt P31648)      Activity               86
5  COc1ccc(/C=N/OCCN2CCCC(C(=O)O)C2)c2ccccc12 (racemic)  Sodium- and chloride-dependent GABA transporter 1 (Mus musculus) (UniProt P31648)      Activity               61

## Task I am curious: what Activity value has been reported for O=Cc1ccc(-c2ccc(C(F)(F)F)cc2Cl)o1 ?
## Result 82

Attribution: ChEMBL document CHEMBL4400545
